System: UO-31 renal
Assay: NCI-60 one-dose screen, 48 h (100 = growth as untreated, 0 = no growth, -100 = all killed)
Conditions: 10 µM
About 83,000 compounds went through this panel and 20% of them were active in at least one assay; those are over-represented in the sample as a whole. Calls of active or inactive are those of the source. Rule for the calls: active = growth percent below 10; inactive = the rest.
// reported growth per item
measured_attribute: growth

> print(dat)
                                   compound  test.target      result.value
1               c1ccc2c(c1)oc1c3cccnc3ccc21  UO-31 renal  44.2% (inactive)
2  N#CC1=C(Nc2ccccc2Cl)SC(c2ccccc2O)NC1=O (stereo not drawn)  UO-31 renal  84.5% (inactive)
3  CCOC(=O)N1C/C(=C/c2ccc(Cl)cc2)C(=O)/C(=C/c2ccc(Cl)cc2)C1  UO-31 renal  45.2% (inactive)
